Taken from paper PMC10053807.

// reported Papp at 4 h, 100 μM per item
# test-method-notes: PAMPA permeability, liver total lipid extract (LTLE) membrane
# condition: bovine, PAMPA, pH 7.4

## Task Specify measured Papp at 4 h, 100 μM for CCn1cc(C(=O)O)c(=O)c2cc(F)c(N3CCNCC3)cc21 [norfloxacin] .
## Result < 0.501 ×10⁻⁶ cm/s

----------
// reported Mean Pe per item
# test-method-notes: PAMPA permeability, brain total lipid extract (BTLE) membrane
# condition: Brain total lipid extract membrane, n=3; * = not detected at acceptor side, value calculated from limit of detection

Below are worked cases with known answers.
* CCOC(=O)[C@H](CCc1ccccc1)N[C@@H](C)C(=O)N1[C@H](C(=O)O)C[C@@H]2CCC[C@@H]21 | < 0,86* 10-6 cm/s
* CC(C)c1nc(N(C)S(C)(=O)=O)nc(-c2ccc(F)cc2)c1/C=C/[C@@H](O)C[C@@H](O)CC(=O)O | < 0,46* 10-6 cm/s
* N=C(N)c1ccc(OCCCOc2ccc(C(=N)N)cc2)cc1 | < 0,73* 10-6 cm/s
* CCCCOc1cc(C(=O)NCCN(CC)CC)c2ccccc2n1 | 40.24 10-6 cm/s
* CCn1cc(C(=O)O)c(=O)c2cc(F)c(N3CCNCC3)cc21 | < 0,49* 10-6 cm/s

Could you now look at the following molecule, please?
## Task Specify measured Mean Pe for NC(N)=Nc1nc(CSCCC(N)=NS(N)(=O)=O)cs1 .
## Result < 0,34* 10-6 cm/s
